Field: inhibition. Provide a value for each of the compounds that follow.
biological target: Fibroblast growth factor receptor 1 (Homo sapiens); assay: Inhibition of N-terminal GST-tagged human FGFR1 cytoplasmic domain (398 to 822 residues) expressed in baculovirus expression system at […] using FAM-labeled peptide as substrate after 10 mins by mobility shift assay relative to control

Could you share what inhibition was measured for COc1ccc(OC)c(Nc2cc(Nc3ccc(Cl)cc3)ncn2)c1 , tested on Fibroblast growth factor receptor 1 (Homo sapiens)?
-8.2%

Could you share what inhibition was measured for COc1ccc(OC)c(Nc2cc(NCCc3cccs3)ncn2)c1 , tested on Fibroblast growth factor receptor 1 (Homo sapiens)?
-8.2%

Could you share what inhibition was measured for O=C(/C=C/c1ccccc1)Nc1cc(Nc2ccc(O)cc2)ncn1 , tested on Fibroblast growth factor receptor 1 (Homo sapiens)?
-3.7%

Could you share what inhibition was measured for O=C(O)CCC(=O)Nc1cc(Nc2cccc(Cl)c2)ncn1 , tested on Fibroblast growth factor receptor 1 (Homo sapiens)?
-3.6%

Could you share what inhibition was measured for O=C(/C=C/c1ccc(F)cc1)Nc1cc(Nc2ccc(N3CCOCC3)cc2)ncn1 , tested on Fibroblast growth factor receptor 1 (Homo sapiens)?
-3.9%

Could you share what inhibition was measured for COc1ccc(/C=C/C(=O)Nc2cc(Nc3ccc(Cl)cc3)ncn2)cc1 , tested on Fibroblast growth factor receptor 1 (Homo sapiens)?
-8.8%

Could you share what inhibition was measured for CCOC(=O)CCC(=O)Nc1cc(Nc2cccc(C(=O)OCC)c2)ncn1 , tested on Fibroblast growth factor receptor 1 (Homo sapiens)?
2.6%

Could you share what inhibition was measured for CCOC(=O)c1ccc(Nc2cc(NC(=O)CCC(=O)O)ncn2)cc1 , tested on Fibroblast growth factor receptor 1 (Homo sapiens)?
-5.4%

Could you share what inhibition was measured for O=C(O)CCCC(=O)Nc1cc(Nc2cccc(Br)c2)ncn1 , tested on Fibroblast growth factor receptor 1 (Homo sapiens)?
-1.1%

Could you share what inhibition was measured for O=C(O)CCC(=O)Nc1cc(Nc2ccc(Cl)cc2)ncn1 , tested on Fibroblast growth factor receptor 1 (Homo sapiens)?
5.2%

Could you share what inhibition was measured for O=C(Nc1cc(Nc2ccc(N3CCOCC3)cc2)ncn1)c1ccc(F)cc1 , tested on Fibroblast growth factor receptor 1 (Homo sapiens)?
3.5%

====

Field: inhibition. Provide a value for each of the molecules that follow.
target: Mast/stem cell growth factor receptor Kit (Homo sapiens) (UniProt P10721); assay: Inhibition of recombinant human N-terminal GST-tagged c-KIT (544 to end residues) expressed in baculovirus infected Sf21 cells at 1 uM using FAM-labeled peptide as substrate after 10 mins by mobility shift assay relative to control
Sequence (P10721 whole entry): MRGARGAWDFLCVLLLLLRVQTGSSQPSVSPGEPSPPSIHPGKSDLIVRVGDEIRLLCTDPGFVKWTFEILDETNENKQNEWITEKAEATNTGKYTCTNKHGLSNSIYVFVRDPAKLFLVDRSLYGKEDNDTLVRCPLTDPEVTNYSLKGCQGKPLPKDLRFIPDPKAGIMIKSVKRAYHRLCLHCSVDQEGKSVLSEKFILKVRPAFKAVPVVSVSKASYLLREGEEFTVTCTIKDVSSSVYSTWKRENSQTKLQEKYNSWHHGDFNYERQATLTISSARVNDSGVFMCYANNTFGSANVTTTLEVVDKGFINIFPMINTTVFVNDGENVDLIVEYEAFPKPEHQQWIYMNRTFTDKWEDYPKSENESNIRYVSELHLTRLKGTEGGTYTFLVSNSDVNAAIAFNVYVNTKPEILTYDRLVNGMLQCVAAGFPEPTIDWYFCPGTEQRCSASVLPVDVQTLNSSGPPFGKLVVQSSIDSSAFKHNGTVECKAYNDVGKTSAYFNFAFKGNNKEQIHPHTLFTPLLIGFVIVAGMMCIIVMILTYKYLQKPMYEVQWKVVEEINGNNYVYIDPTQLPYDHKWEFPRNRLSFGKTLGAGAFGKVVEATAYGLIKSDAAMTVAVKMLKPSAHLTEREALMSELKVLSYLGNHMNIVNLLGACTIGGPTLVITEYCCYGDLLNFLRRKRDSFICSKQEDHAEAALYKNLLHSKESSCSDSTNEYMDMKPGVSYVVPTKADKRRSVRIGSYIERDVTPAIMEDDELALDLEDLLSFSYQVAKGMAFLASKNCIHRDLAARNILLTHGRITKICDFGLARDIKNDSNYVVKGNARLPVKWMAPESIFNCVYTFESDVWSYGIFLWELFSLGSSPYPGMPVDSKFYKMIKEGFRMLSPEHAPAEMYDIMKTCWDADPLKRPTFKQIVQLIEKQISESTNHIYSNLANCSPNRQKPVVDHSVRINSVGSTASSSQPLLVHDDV
// units = %; emit number, no label

Reported inhibition, molecule CCOC(=O)c1ccc(Nc2cc(NC(=O)CCCC(=O)O)ncn2)cc1 : ____
5.9

Reported inhibition, molecule COc1cccc(Nc2cc(Nc3cc(OC)ccc3OC)ncn2)c1 : ____
0.4

Reported inhibition, molecule O=C(O)CCCC(=O)Nc1cc(Nc2cccc(Cl)c2)ncn1 : ____
13.3

Reported inhibition, molecule COc1ccc(Nc2cc(NC(=O)c3ccccc3)ncn2)cc1 : ____
26

Reported inhibition, molecule O=C(O)CCCC(=O)Nc1cc(N2CCOCC2)ncn1 : ____
-4.4

Reported inhibition, molecule COc1cccc(Nc2cc(NC(=O)CCCC(=O)O)ncn2)c1 : ____
13.3

====

target: Proto-oncogene tyrosine-protein kinase receptor Ret (Homo sapiens); assay: Inhibition of N-terminal GST-tagged human RET cytoplasmic domain (658 to 1114 residues) expressed in baculovirus expression system at 1 uM using FAM-labeled peptide as substrate after 10 mins by mobility shift assay relative to control
measured-property: inhibition (%)
// units = %; emit number, no label

Reported inhibition, compound O=C(O)CCCC(=O)Nc1cc(N2CCOCC2)ncn1 : ____
8.5

Reported inhibition, compound CCOC(=O)c1ccc(Nc2cc(NC(=O)CCCC(=O)O)ncn2)cc1 : ____
10.4

Reported inhibition, compound COc1ccc(Nc2cc(NC(=O)c3ccccc3)ncn2)cc1 : ____
2.9

Reported inhibition, compound COc1cccc(Nc2cc(NC(=O)CCCC(=O)O)ncn2)c1 : ____
7.7

Reported inhibition, compound COc1cccc(Nc2cc(Nc3cc(OC)ccc3OC)ncn2)c1 : ____
16.3

Reported inhibition, compound O=C(O)CCCC(=O)Nc1cc(Nc2cccc(Cl)c2)ncn1 : ____
16.8

====

biological target: Vascular endothelial growth factor receptor 2 (Homo sapiens) (UniProt P35968); experiment: Inhibition of N-terminal GST-tagged human KDR cytoplasmic domain (790 to 1356 residues) expressed in baculovirus expression system at […] using FAM-labeled peptide as substrate after 10 mins by mobility shift assay relative to control
Sequence (P35968 whole entry, the tested form may be a part): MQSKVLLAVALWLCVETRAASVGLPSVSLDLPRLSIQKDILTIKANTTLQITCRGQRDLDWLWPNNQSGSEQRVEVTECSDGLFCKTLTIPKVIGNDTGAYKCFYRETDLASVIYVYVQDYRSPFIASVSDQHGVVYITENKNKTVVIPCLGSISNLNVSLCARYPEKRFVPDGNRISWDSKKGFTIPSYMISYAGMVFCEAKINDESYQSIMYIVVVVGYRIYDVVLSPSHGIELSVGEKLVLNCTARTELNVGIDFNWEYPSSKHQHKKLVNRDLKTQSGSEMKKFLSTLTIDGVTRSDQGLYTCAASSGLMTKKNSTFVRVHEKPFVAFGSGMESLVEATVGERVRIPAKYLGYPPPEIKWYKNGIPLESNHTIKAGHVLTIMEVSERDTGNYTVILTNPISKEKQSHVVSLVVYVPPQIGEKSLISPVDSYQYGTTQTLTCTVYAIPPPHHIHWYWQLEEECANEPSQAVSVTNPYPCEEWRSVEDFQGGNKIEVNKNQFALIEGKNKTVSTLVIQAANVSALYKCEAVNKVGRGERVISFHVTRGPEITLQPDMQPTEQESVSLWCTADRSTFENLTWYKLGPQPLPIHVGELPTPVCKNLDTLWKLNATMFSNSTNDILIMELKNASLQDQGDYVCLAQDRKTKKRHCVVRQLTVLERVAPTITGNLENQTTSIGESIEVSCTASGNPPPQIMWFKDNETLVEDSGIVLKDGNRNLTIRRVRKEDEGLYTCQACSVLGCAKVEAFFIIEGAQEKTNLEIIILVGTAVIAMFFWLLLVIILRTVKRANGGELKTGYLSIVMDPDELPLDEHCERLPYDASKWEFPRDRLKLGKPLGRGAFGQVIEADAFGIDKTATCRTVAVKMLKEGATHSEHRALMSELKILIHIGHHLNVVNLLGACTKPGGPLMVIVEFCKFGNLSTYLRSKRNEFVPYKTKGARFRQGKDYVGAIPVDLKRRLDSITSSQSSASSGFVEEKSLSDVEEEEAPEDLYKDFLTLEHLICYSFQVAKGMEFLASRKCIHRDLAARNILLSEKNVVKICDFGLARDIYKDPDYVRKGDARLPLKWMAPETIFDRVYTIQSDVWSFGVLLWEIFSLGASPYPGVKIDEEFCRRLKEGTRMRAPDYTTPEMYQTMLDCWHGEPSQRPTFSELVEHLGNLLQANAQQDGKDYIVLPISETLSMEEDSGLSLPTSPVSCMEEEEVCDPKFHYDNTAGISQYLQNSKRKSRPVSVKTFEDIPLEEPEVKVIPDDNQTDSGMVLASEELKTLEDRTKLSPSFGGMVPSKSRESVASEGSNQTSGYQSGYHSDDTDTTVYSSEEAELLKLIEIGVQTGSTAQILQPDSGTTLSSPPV
measured-property: inhibition (%)
// units = %; emit number, no label

Reported inhibition, molecule CCOc1cccc(Nc2cc(NC(=O)c3ccc(F)cc3)ncn2)c1 : ____
6.1

Reported inhibition, molecule COc1cccc(Nc2cc(NC(=O)/C=C/c3ccccc3)ncn2)c1 : ____
9.3

Reported inhibition, molecule Clc1cccc(Nc2cc(Nc3cccc(Br)c3)ncn2)c1 : ____
20

Reported inhibition, molecule O=C(O)CCCC(=O)Nc1cc(Nc2ccc(Cl)cc2)ncn1 : ____
18

Reported inhibition, molecule CCOC(=O)c1c(Nc2cc(NC(=O)CCC(=O)OC(C)C)ncn2)sc2c1CCCC2 : ____
16.4

Reported inhibition, molecule O=C(Nc1cc(Nc2ccc(Cl)cc2)ncn1)c1ccccc1 : ____
-1.4

====

Field: inhibition. Provide a value for each of the compounds that follow.
target: Serine/threonine-protein kinase PAK 2 (Homo sapiens) (UniProt Q13177); experiment: Inhibition of human N-terminal GST-tagged full length PAK2 (1 to 524 residues) expressed in baculovirus expression system at 1 uM using FAM-labeled peptide as substrate after 10 mins by mobility shift assay relative to control
Sequence (Q13177 whole entry, the tested form may be a part): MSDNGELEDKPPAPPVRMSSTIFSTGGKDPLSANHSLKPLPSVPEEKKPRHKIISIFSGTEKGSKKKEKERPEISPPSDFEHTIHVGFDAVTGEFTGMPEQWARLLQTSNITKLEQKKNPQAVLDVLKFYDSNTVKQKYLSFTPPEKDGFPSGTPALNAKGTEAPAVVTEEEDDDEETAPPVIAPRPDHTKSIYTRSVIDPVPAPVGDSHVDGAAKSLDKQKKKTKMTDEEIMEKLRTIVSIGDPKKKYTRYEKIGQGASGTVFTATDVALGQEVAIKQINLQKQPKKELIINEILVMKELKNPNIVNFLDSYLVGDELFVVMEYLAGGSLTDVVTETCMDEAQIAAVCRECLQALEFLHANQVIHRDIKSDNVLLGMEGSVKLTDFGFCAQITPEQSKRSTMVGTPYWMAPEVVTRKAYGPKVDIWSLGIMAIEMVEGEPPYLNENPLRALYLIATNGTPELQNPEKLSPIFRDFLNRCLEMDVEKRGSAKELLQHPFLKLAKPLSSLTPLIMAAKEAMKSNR

Could you share what inhibition was measured for O=C(O)CCCC(=O)Nc1cc(Nc2cccc(Cl)c2)ncn1 , tested on Serine/threonine-protein kinase PAK 2 (Homo sapiens) (UniProt Q13177)?
16.9%

Could you share what inhibition was measured for CCOC(=O)c1ccc(Nc2cc(NC(=O)CCCC(=O)O)ncn2)cc1 , tested on Serine/threonine-protein kinase PAK 2 (Homo sapiens) (UniProt Q13177)?
15.7%

Could you share what inhibition was measured for COc1cccc(Nc2cc(NC(=O)CCCC(=O)O)ncn2)c1 , tested on Serine/threonine-protein kinase PAK 2 (Homo sapiens) (UniProt Q13177)?
18.9%

Could you share what inhibition was measured for COc1cccc(Nc2cc(Nc3cc(OC)ccc3OC)ncn2)c1 , tested on Serine/threonine-protein kinase PAK 2 (Homo sapiens) (UniProt Q13177)?
4.7%

Could you share what inhibition was measured for O=C(O)CCCC(=O)Nc1cc(N2CCOCC2)ncn1 , tested on Serine/threonine-protein kinase PAK 2 (Homo sapiens) (UniProt Q13177)?
9.4%

Could you share what inhibition was measured for COc1ccc(Nc2cc(NC(=O)c3ccccc3)ncn2)cc1 , tested on Serine/threonine-protein kinase PAK 2 (Homo sapiens) (UniProt Q13177)?
13.4%

====

Target: Inhibitor of nuclear factor kappa-B kinase subunit beta (Homo sapiens)
Sequence (whole entry): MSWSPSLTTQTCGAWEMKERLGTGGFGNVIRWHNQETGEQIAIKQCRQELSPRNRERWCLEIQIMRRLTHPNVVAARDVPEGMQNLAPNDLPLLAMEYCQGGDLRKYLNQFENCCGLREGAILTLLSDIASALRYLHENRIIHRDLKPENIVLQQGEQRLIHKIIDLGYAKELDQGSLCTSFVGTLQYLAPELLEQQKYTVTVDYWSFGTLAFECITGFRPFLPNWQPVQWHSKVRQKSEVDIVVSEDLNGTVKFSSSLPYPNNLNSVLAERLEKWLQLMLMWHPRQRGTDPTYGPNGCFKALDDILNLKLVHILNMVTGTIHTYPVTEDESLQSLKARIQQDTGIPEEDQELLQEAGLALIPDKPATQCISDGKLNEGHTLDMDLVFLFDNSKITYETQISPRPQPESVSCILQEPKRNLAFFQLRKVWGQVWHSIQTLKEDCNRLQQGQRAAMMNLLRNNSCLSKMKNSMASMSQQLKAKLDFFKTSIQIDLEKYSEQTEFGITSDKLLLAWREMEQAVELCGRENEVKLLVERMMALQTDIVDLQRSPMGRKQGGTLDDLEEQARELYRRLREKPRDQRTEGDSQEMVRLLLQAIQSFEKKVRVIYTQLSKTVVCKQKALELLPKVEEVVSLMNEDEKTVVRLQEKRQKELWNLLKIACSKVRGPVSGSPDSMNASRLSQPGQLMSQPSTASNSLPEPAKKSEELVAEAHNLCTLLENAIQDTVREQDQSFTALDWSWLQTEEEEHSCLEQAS
Assay: Inhibition of human N-terminal His-tagged truncated IKKB (1 to 662 residues) expressed in baculovirus expression system at 1 uM using FAM-labeled peptide as substrate after 10 mins by mobility shift assay relative to control
measured-property: inhibition (%)
// units = %; emit number, no label

Reported inhibition, compound O=C(O)CCCC(=O)Nc1cc(N2CCOCC2)ncn1 : ____
-3.2

Reported inhibition, compound CCOC(=O)c1ccc(Nc2cc(NC(=O)CCCC(=O)O)ncn2)cc1 : ____
1.2

Reported inhibition, compound COc1cccc(Nc2cc(Nc3cc(OC)ccc3OC)ncn2)c1 : ____
-2.1

Reported inhibition, compound COc1ccc(Nc2cc(NC(=O)c3ccccc3)ncn2)cc1 : ____
3.5

Reported inhibition, compound COc1cccc(Nc2cc(NC(=O)CCCC(=O)O)ncn2)c1 : ____
13.3

Reported inhibition, compound O=C(O)CCCC(=O)Nc1cc(Nc2cccc(Cl)c2)ncn1 : ____
1.1
